target: IDO1 (Homo sapiens); assay: IDO1 Human Whole Blood Assay; settings: LPS and IFNγ 100 ng/mL, 18 h, kynurenine by LC/MS/MS, read-out: Human Whole Blood Potency, IC50
Sequence (P14902 whole entry): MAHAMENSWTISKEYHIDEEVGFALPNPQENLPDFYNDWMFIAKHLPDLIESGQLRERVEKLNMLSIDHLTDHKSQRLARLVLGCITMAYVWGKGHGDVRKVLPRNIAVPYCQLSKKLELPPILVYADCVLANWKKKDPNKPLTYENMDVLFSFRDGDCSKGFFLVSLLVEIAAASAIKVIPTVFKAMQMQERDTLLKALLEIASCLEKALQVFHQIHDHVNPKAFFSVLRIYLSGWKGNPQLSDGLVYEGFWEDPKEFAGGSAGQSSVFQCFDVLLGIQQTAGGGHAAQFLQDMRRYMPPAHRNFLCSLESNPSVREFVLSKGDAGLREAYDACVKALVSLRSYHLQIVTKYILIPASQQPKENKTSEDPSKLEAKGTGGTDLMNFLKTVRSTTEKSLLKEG
Assay Endpoint: IC50 (nM)

[[record]]
compound = "O=C(NC1(c2ccc(-c3cnc(C(F)(F)F)cc3CO)cc2)CCC1)c1ccc(F)cc1 [Example 53]"
readout_value = 1000

[[record]]
compound = "CC1CC1(NC(=O)c1ccc(F)cc1)c1ccc(-c2cnc(C(F)(F)F)cc2C(C)(C)O)nc1 (single isomer, unassigned) [Example 59]"
readout_value = 171

[[record]]
compound = "Cc1cc(C2CC2)ncc1-c1ccc(C2(NC(=O)c3ccc(C#N)cc3)CCC2)nc1 [Example 42]"
readout_value = 392

[[record]]
compound = "C[C@H](O)c1cc(C(F)(F)F)ncc1-c1ccc(C2(NC(=O)c3ccc(F)cc3)CC2)cc1 [Example 50]"
readout_value = 186

[[record]]
compound = "Cc1cc(C2CC2)ncc1-c1ccc(C2(NC(=O)c3ccc(C#N)cc3)CCC2)cc1F [Example 7]"
readout_value = 398

[[record]]
compound = "CC1CC1(NC(=O)c1ccc(F)cc1)c1ccc(-c2cnc(C(F)(F)F)cc2C(C)(C)O)nc1 (single isomer, unassigned) [Example 58]"
readout_value = 284


[1] N#Cc1ccc(C(=O)NC2(c3ccc(-c4cnc(C(F)(F)F)cc4CO)cc3)CCC2)cc1 [Example 35]
[2] CC1CC1(NC(=O)c1ccc(F)cc1)c1ccc(-c2cnc(C(F)(F)F)cc2C(C)(C)O)nc1 (single isomer, unassigned) [Example 60]
[3] CC(C)(O)c1cc(OC2CC2)ncc1-c1ccc(C2(NC(=O)c3ccc(F)cc3)CCC2)cc1 [Example 54]
[4] O=C(NC1(c2ccc(-c3cnc(C(F)(F)F)cc3CO)cc2)CC1)c1ccc(Cl)cc1 [Example 46]
Ascending sort, IC50. I would appreciate it if you listed the labels in the requested order.
2, 3, 4, 1

[A] N#Cc1ccc(C(=O)NC2(c3ccc(-c4ccc(C5CC5)nc4CO)cc3)CCC2)cc1 [Example 25]
[B] CC(C)(O)c1cc(OC2CC2)ncc1-c1ccc(C2(NC(=O)c3ccc(F)cc3)CC2)cc1 [Example 47]
Field: entry with larger IC50 (options A / B ). Pick one; state its label.
A
